- test_method_notes: Optical properties
- Type: physicochemical
- measurement_setup: in methanol
measurement_kind: Em (nm)
The number alone won't do; follow it with the unit.

>  <molecule>
CCC1=C(C)O[B-](F)(F)[O+]=C1C [Compound 3]

>  <assay_result>
306 nm

$$$$
>  <molecule>
COc1cc(/C=C/C2=CC(/C=C/c3ccc(OC(=O)CCN4C(=O)C=CC4=O)c(OC)c3)=[O+][B-](F)(F)O2)ccc1OC(=O)CCN1C(=O)C=CC1=O [Compound 10]

>  <assay_result>
509 nm

$$$$

Now look at this entry.
QUERY: In one line, give reported Em (nm) of the entry CC1=CC(C)=[O+][B-](F)(F)O1 [Compound 1] .
RESULT: 305 nm

----------
- test_method_notes: Optical properties
- Format: physicochemical
- measurement_setup: in methanol
Documented Stokes Shift (nm) across a set of compounds
State just the number; it will be interpreted in nm.

Field: example entries. Status: answers known.
>  <given_smiles>
COc1cc(/C=C/C2=CC(/C=C/c3ccc(OC(=O)CCN4C(=O)C=CC4=O)c(OC)c3)=[O+][B-](F)(F)O2)ccc1OC(=O)CCN1C(=O)C=CC1=O

>  <endpoint_unit>
nm

>  <Stokes Shift (nm)>
75

$$$$
>  <given_smiles>
CC1=C2CCCCC2=[O+][B-](F)(F)O1

>  <endpoint_unit>
nm

>  <Stokes Shift (nm)>
4

$$$$
>  <given_smiles>
CC1=CC(C)=[O+][B-](F)(F)O1

>  <endpoint_unit>
nm

>  <Stokes Shift (nm)>
26

$$$$

QUERY: Check the records and state Stokes Shift (nm) for CC1=[O+][B-](F)(F)OC(C)=C1C
RESULT: 4

QUERY: Respond only with Stokes Shift (nm) recorded for CC1=CC(c2ccccc2)=[O+][B-](F)(F)O1
RESULT: 3

QUERY: Write down Stokes Shift (nm) measured for item CCOC(=O)CCC1=C(C)O[B-](F)(F)[O+]=C1C
RESULT: 6

QUERY: Return Stokes Shift (nm) for the following compound: COc1cc(/C=C/C2=CC(/C=C/c3ccc(OC(=O)c4c(F)cc(F)cc4F)c(OC)c3)=[O+][B-](F)(F)O2)ccc1OC(=O)c1c(F)cc(F)cc1F
RESULT: 82

QUERY: Specify reported Stokes Shift (nm) for the compound shown: CCC1=C(C)O[B-](F)(F)[O+]=C1C
RESULT: 3

----------
- test_method_notes: Solvolytic stability of difluoro-dioxaborinins by 19F NMR in water/DMSO
- Assay type: physicochemical
- measurement_setup: solvolysis in 5.5 M H2O vs. 50 M H2O
measurement_kind: Fold increase in stability (90% to 10% H2O)

// below: answered molecules
>  <given_smiles>
CC1=C2CCCCC2=[O+][B-](F)(F)O1

>  <assay_result>
5.0 fold

$$$$
>  <given_smiles>
CC1=[O+][B-](F)(F)OC(C)=C1C

>  <assay_result>
3.2 fold

$$$$
>  <given_smiles>
CCC1=C(C)O[B-](F)(F)[O+]=C1C

>  <assay_result>
3.5 fold

$$$$
>  <given_smiles>
CC1=CC(C)=[O+][B-](F)(F)O1

>  <assay_result>
2.8 fold

$$$$

QUERY: Kindly indicate its recorded Fold increase in stability (90% to 10% H2O). Item: CCOC(=O)CCC1=C(C)O[B-](F)(F)[O+]=C1C
RESULT: 4.7 fold
